assay-text: soluble on expression in E. coli; label from the status in PepcDB or PDB records
measurement-type: soluble on expression in E. coli

See these solved cases before continuing.
MGSDKIHHHHHHAAAPAFSALGDTASSQARHIATVFPGRMTGTPPEMLSADYLRQQFALMGYQSDVRSFNTRYIYTDSNQRKNWHNATGSTVIAAHEGKVRQQIIIMAHLDTYAPQSDKDVENNLGGLTLQGIDDNAMGLGVLLELAEHLKNVPTRYGIRFIATSGEEEGRLGAQNLLQRMSEAEKKNTLLVINLDNLVVGDKLYFNSGRSTPASVRKLTRDRALAIARSKGIAAYTNPGLNPAYPKGTSCCNDASVFDNAGIPVLSVEATNWSLGKKDGYQQRSKSASFPQGTSWHDVQLDNQQYIDHALPGRIEHRGREVVKVMLPLVKELAKVEKKS; not soluble
MKSVMSNPTFRQDSIRMFRGRKPPQKGKPAMEIKSERSDSQHTLTITVPLGKASRNDQPPSNLTEEAAKKVAGTGRNDGKKVQFAEKLVNKTKSPSTGPSTSKKLQKSQKTQKSSKKSQKKSKKSKKSSKSK; not soluble
MSLKFTAIDFETANEKRNSPCSIGIVVVKDGHVVEKSHHLIRPKEMRFMPINIGIHGIRPAMVEKEPEFDKVWEKIKHYFDDTLVIAHNASFDISVLRKSAELYNIELPEFNYICTMKLARNFYKGIENAKLNTVNNFLGYEFRHHDALYDALACSNIMLSISKELKCKDITEISKLLGEGHHHHHH; not soluble
AIALRADKPKCSIQNFFIPALGKDPNSRDNTTLNFMVRCDNPNKDKGIYYDDVHLNFSTINTTKINSSALVLVGNYTVPKFYQGHKKKAKKWGQVKPLNNQTVLRAVLPNGSAVFRLDLKTQVRFKIVFWKTKRYGVEVGADVEVNGDGVKAQKKGIKMKKS; soluble
MSLDRELKNLHLNISQLAALSGAHRQTVAARVKNISPAGGHESNLKLYRLTDILAELMKAPLPVDNEEMDPHARKAWYQSERDRLKFEQETGQLVPVSDVRRSFSVVVKAIVQVLETWPDRLERDRGWTASQLNEVQIVVDEIRDTLEKAVIDCCDEADEGHHHHHH; soluble

Prompt: Record request: soluble on expression in E. coli value, item `MPNHLAGETSPYLLQHAENPVDWYPWGEEALEIARMLDKPILLSIGYSACHWCHVMAHESFEDAQVATAMNEHFVNIKVDREERPDIDQIYQSAHYTLNHRSGGWPLTMFLTPEQKPFFGGTYFPKEARYSMPGFLELLPKVAELYRTRKTDIEKQNA`
Completion: not soluble

Prompt: Now give it for `MSLITVANRIFVNPERAAAFEERFRRRPRRVDRQPGFIADHVLRPTQAGDPYVVLSFWDSRAAFEAWRTSPGFKDGHKEGHHHHHH` too.
Completion: not soluble

Prompt: Try `MHHHHHHSSRENLYFQGTLPLWIGKPGDKPPPLCGAIPASGDYVARPGDKVAARVKAVDGDEQWILAEVVSYSHATNKYEVDDIDEEGKERHTLSRRRVIPLPQWKANPETDPEALFQKEQLVLALYPQTTCFYRALIHAPPQRPQDDYSVLFEDTSYADGYSPPLNVAQRYVVACKEPK` next.
Completion: soluble
